Target: HLA-A*24:02
Assay: IEDB peptide-MHC binding, purified MHC/competitive/fluorescence; bounds were set here for any values at or beyond the usual limits of such assays
Settings: source organism: Zaire ebolavirus
endpoint: IC50 (µM)
Numbers only, in µM.

Example sequences with recorded IC50:
> print(dat)
   biopolymer.sequence  measurement.target  experimental.value
1            HKNKFMAIL         HLA-A*24:02                50.9
2            YAPFARLLN         HLA-A*24:02                19.3
3            PFDAVLYYH         HLA-A*24:02                4.69
4            LFLESGAVK         HLA-A*24:02                15.2
5            KRSNTTGKL         HLA-A*24:02                66.1
6            TTELRTFSI         HLA-A*24:02                12.2
7            SHLTTLATI         HLA-A*24:02               0.402
8            HYWTTQDEG         HLA-A*24:02                42.8

Please look at the following sequence next.
INPUT: May I ask what IC50 has been recorded for QRWGGTCHI ?
OUTPUT: 43.3
